Where do the numbers come from? From ChEMBL document CHEMBL5131556.

# tested system: Sodium-dependent serotonin transporter (Homo sapiens, UniProt P31645)
# Sequence (P31645 whole entry): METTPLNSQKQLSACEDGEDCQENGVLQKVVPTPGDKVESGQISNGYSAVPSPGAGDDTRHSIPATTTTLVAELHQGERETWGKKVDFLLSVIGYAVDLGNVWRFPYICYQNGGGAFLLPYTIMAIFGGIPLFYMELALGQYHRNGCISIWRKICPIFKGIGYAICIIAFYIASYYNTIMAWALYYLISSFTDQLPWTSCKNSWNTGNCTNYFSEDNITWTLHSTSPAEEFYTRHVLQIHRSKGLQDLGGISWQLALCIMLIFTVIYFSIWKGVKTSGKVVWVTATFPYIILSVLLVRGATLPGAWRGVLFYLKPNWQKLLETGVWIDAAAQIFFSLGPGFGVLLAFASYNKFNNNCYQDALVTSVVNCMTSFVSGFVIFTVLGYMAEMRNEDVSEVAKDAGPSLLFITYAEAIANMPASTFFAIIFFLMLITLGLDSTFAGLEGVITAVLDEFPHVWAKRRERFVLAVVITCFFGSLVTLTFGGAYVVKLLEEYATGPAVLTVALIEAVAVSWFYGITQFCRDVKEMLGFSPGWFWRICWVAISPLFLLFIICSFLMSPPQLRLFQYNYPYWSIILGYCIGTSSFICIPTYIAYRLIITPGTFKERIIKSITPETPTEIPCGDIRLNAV
# assay comment: Inhibition of human SERT transfected in HEK cells using APP+ as fluorescent substrate preincubated for 1 hr followed by substrate addition and measured after 30 mins by fluorescence plate reader assay
Entries whose IC50 is below 700 nM take T; entries at or above 700 nM take F.

Sample answers from the record:
>  <item smiles>
CC[C@H]1C[C@@H]2C[C@H]3c4[nH]c5ccc(OC)c(Br)c5c4CCN(C2)[C@@H]13

>  <tested system>
Sodium-dependent serotonin transporter (Homo sapiens, UniProt P31645)

>  <class label>
T

$$$$
>  <item smiles>
CCc1ccc2c(c1)c1c(n2C)[C@@H]2C[C@H]3C[C@H](CC)[C@@H]2N(CC1)C3

>  <tested system>
Sodium-dependent serotonin transporter (Homo sapiens, UniProt P31645)

>  <class label>
F

$$$$

QUERY: hey, is IC50 for CC[C@H]1C[C@@H]2C[C@H]3c4c(c5cc(OC)ccc5n4C)CCN(C2)[C@@H]13 lower than 700 nM or not?
RESULT: F

QUERY: Lab note: IC50 threshold 700 nM. Does this molecule come in strictly under it? CC[C@H]1C[C@@H]2C[C@H]3c4[nH]c5ccc(C#N)cc5c4CCN(C2)[C@@H]13
RESULT: T

QUERY: Input CC[C@H]1C[C@@H]2C[C@H]3c4c(c5cc(C#N)ccc5n4C)CCN(C2)[C@@H]13 ; condition: IC50 strictly below 700 nM. Does it hold?
RESULT: T

QUERY: Dear reviewer, please state whether CC[C@H]1C[C@@H]2C[C@H]3c4c(c5ccccc5n4C)CCN(C2)[C@@H]13 has IC50 strictly beneath 700 nM.
RESULT: T

QUERY: hey, is IC50 for CC[C@H]1C[C@@H]2C[C@H]3c4[nH]c5ccccc5c4CCN(C2)[C@@H]13 lower than 700 nM or not?
RESULT: T

QUERY: Lab log: compare recorded IC50 with 700 nM; is it strictly lower for CCOc1ccc2[nH]c3c(c2c1)CCN1C[C@@H]2C[C@H](CC)[C@H]1[C@H]3C2 ?
RESULT: F

QUERY: Strictly below 700 nM: is that where IC50 of CC[C@H]1C[C@@H]2C[C@H]3c4c(c5cc(O)ccc5n4C)CCN(C2)[C@@H]13 sits?
RESULT: T

QUERY: Hi there! Is IC50 for CC[C@H]1C[C@@H]2C[C@H]3c4c(c5cc(O)ccc5n4CC)CCN(C2)[C@@H]13 below 700 nM, do you know?
RESULT: F
